src = patent US12281122B1

Test system: T47D (PI3Kα-H1047R) cell line
Assay: HTRF phospho-AKT(S473) cell assay in T47D cells
Format: cell-based, human
Settings: Homo sapiens; HTRF phospho-AKT(S473), T47D (PI3Kα-H1047R) cells, 2 hours compound incubation
pIC50: −log10 of the molar value.
Reported values of pIC50 for individual entries

| mol.smiles | target.or.system | pIC50 |
| --- | --- | --- |
| Cc1cc([C@@H](C)Nc2ccc(Cl)nc2C(=O)NS(C)(=O)=O)c2nc(N3Cc4cncnc4C3)n(C)c(=O)c2c1 | T47D (PI3Kα-H1047R) cell line | 6.30 to 6.60 |
| CCn1c(N2CCc3nn(C)cc3C2)nc2c([C@@H](C)Nc3ccc(Cl)nc3C(=O)NS(C)(=O)=O)cc(C)cc2c1=O | T47D (PI3Kα-H1047R) cell line | > 6.60 |
| Cc1cc([C@@H](C)Nc2ccc(Cl)nc2C(=O)NS(C)(=O)=O)c2nc(N3CCO[C@H](c4ccccc4)C3)n(C)c(=O)c2c1 | T47D (PI3Kα-H1047R) cell line | > 6.60 |
| Cc1cc([C@@H](C)Nc2ccc(Cl)nc2C(=O)NS(C)(=O)=O)c2nc(N3CCC(c4cc(C)on4)CC3)n(C)c(=O)c2c1 | T47D (PI3Kα-H1047R) cell line | > 6.60 |
| Cc1cc([C@@H](C)Nc2ccc(Cl)nc2C(=O)NS(C)(=O)=O)c2nc(N3C[C@@H]4[C@H](C3)[C@H]4c3c(F)cnn3C3CC3)n(C)c(=O)c2c1 | T47D (PI3Kα-H1047R) cell line | > 6.60 |
| Cc1cc([C@@H](C)Nc2ccc(Cl)nc2C(=O)NS(C)(=O)=O)c2nc(N3C[C@@H]4[C@H](C3)[C@H]4c3ccc(C)nc3)n(C)c(=O)c2c1 | T47D (PI3Kα-H1047R) cell line | 6.30 to 6.60 |
| Cc1cc([C@@H](C)Nc2ccc(Cl)nc2C(=O)NS(C)(=O)=O)c2nc(N3CCN(c4cnc(C)c(F)c4)CC3)n(C)c(=O)c2c1 | T47D (PI3Kα-H1047R) cell line | 6.30 to 6.60 |
| Cc1cc([C@@H](C)Nc2ccc(Cl)nc2C(=O)NS(C)(=O)=O)c2nc(N3C[C@@H]4[C@H](C3)[C@H]4c3csc(C)n3)n(C)c(=O)c2c1 | T47D (PI3Kα-H1047R) cell line | 6.30 to 6.60 |
| Cc1cc([C@@H](C)Nc2ccc(Cl)nc2C(=O)NS(C)(=O)=O)c2nc(N3C[C@@H]4[C@H](C3)[C@H]4c3ccnc(C)c3F)n(C)c(=O)c2c1 | T47D (PI3Kα-H1047R) cell line | 6.30 to 6.60 |
| Cc1cc([C@@H](C)Nc2ccc(Cl)nc2C(=O)NS(C)(=O)=O)c2nc(-c3cccc(Cl)c3Cl)n(C)c(=O)c2c1 | T47D (PI3Kα-H1047R) cell line | 6.00 to 6.30 |
| Cc1cc([C@@H](C)Nc2ccc(Cl)nc2C(=O)NS(C)(=O)=O)c2nc(-c3cnc(N4CCOCC4)nc3)n(C)c(=O)c2c1 | T47D (PI3Kα-H1047R) cell line | > 6.60 |
| Cc1cc([C@@H](C)Nc2ccc(Cl)nc2C(=O)NS(C)(=O)=O)c2nc(N3CCN(c4cncc(C)n4)CC3)n(C)c(=O)c2c1 | T47D (PI3Kα-H1047R) cell line | > 6.60 |

----------
Test system: T47D (PI3Kα-H1047R) cell line
Assay: HTRF phospho-AKT(S473) cell assay in T47D cells
Type: cell-based, human
Conditions: Homo sapiens; HTRF phospho-AKT(S473), T47D (PI3Kα-H1047R) cells, 2 hours compound incubation
Reported values of IC50 for individual entries

| compound | target.or.system | IC50 |
| --- | --- | --- |
| Cc1cc([C@@H](C)Nc2ccc(Cl)nc2C(=O)NS(C)(=O)=O)c2nc(N3CCC(c4nnc(C)s4)CC3)n(C)c(=O)c2c1 | T47D (PI3Kα-H1047R) cell line | < 250 nM |
| Cc1cc([C@@H](C)Nc2ccc(Cl)nc2C(=O)NS(C)(=O)=O)c2nc(N3C[C@@H]4[C@H](C3)[C@H]4c3n[nH]c(C)c3F)n(C)c(=O)c2c1 | T47D (PI3Kα-H1047R) cell line | < 250 nM |
| Cc1cc([C@@H](C)Nc2ccc(Cl)nc2C(=O)NS(C)(=O)=O)c2nc(N3CCC[C@@H](c4ccn(C(F)F)n4)C3)n(C)c(=O)c2c1 (relative stereo) | T47D (PI3Kα-H1047R) cell line | 250 to 500 nM |
| Cc1cc([C@@H](C)Nc2ccc(Cl)nc2C(=O)NS(C)(=O)=O)c2nc(N3CCC(c4ccc[nH]c4=O)CC3)n(C)c(=O)c2c1 | T47D (PI3Kα-H1047R) cell line | 500 to 1000 nM |
| [2H]C([2H])([2H])n1nccc1C1CCN(c2nc3c([C@@H](C)Nc4ccc(Cl)nc4C(=O)NS(C)(=O)=O)cc(C)cc3c(=O)n2C)CC1 | T47D (PI3Kα-H1047R) cell line | < 250 nM |
| Cc1cc([C@@H](C)Nc2ccc(Cl)nc2C(=O)NS(C)(=O)=O)c2nc(-c3ccc4oc(C)nc4c3)n(C)c(=O)c2c1 | T47D (PI3Kα-H1047R) cell line | 250 to 500 nM |

----------
Reported values of pIC50 for individual entries
Test system: T47D (PI3Kα-H1047R) cell line
Assay: HTRF phospho-AKT(S473) cell assay in T47D cells
Type: cell-based, human
Settings: Homo sapiens; HTRF phospho-AKT(S473), T47D (PI3Kα-H1047R) cells, 2 hours compound incubation
pIC50: −log10 of the molar value.
recorded.metric: pIC50

| compound | result |
| --- | --- |
| Cc1cc([C@@H](C)Nc2ccc(Cl)nc2C(=O)NS(C)(=O)=O)c2nc(N3CCN(c4cc(F)cnc4C)CC3)n(C)c(=O)c2c1 | 6.30 to 6.60 |
| Cc1cc([C@@H](C)Nc2ccc(Cl)nc2C(=O)NS(C)(=O)=O)c2nc(N3CCC(c4ncc(C)nc4C)CC3)n(C)c(=O)c2c1 | > 6.60 |
| Cc1cc([C@@H](C)Nc2ccc(Cl)nc2C(=O)NS(C)(=O)=O)c2nc(-c3ccc4c(c3)CN(C)C4=O)n(C)c(=O)c2c1 | > 6.60 |
| Cc1cc([C@@H](C)Nc2ccc(Cl)nc2C(=O)NS(C)(=O)=O)c2nc(-c3cc(F)c4cn(C)nc4c3)n(C)c(=O)c2c1 | > 6.60 |
| Cc1cc([C@@H](C)Nc2ccc(Cl)nc2C(=O)NS(C)(=O)=O)c2nc(N3C[C@H]4C[C@@H]3CN4c3cnc(C)cn3)n(C)c(=O)c2c1 | 6.30 to 6.60 |
| Cc1cc([C@@H](C)Nc2ccc(Cl)nc2C(=O)NS(C)(=O)=O)c2nc(N3C[C@@H]4C[C@H]3CN4c3ncc(F)cn3)n(C)c(=O)c2c1 | 6.30 to 6.60 |
| COc1ccc(N2C[C@H]3C[C@@H]2CN3c2nc3c([C@@H](C)Nc4ccc(Cl)nc4C(=O)NS(C)(=O)=O)cc(C)cc3c(=O)n2C)cn1 | 6.30 to 6.60 |
| Cc1cc([C@@H](C)Nc2ccc(Cl)nc2C(=O)NS(C)(=O)=O)c2nc(N3C[C@H]4C[C@@H]3CN4c3ncc(C#N)cc3F)n(C)c(=O)c2c1 | 6.30 to 6.60 |
| Cc1cc([C@@H](C)Nc2ccc(Cl)nc2C(=O)NS(C)(=O)=O)c2nc(N3C[C@@H]4[C@H](C3)[C@H]4c3nnc(C)o3)n(C)c(=O)c2c1 | > 6.60 |
| Cc1cc([C@@H](C)Nc2ccc(Cl)nc2C(=O)NS(C)(=O)=O)c2nc(N3CCC[C@@H](c4ccnn4C(F)F)C3)n(C)c(=O)c2c1 (relative stereo) | 6.30 to 6.60 |
| Cc1cc([C@@H](C)Nc2ccc(Cl)nc2C(=O)NS(C)(=O)=O)c2nc(N3C[C@@H]4[C@H](C3)[C@H]4n3ccccc3=O)n(C)c(=O)c2c1 | 6.30 to 6.60 |
| Cc1cc([C@@H](C)Nc2ccc(Cl)nc2C(=O)NS(C)(=O)=O)c2nc(N3Cc4cnc(C)cc4C3)n(C)c(=O)c2c1 | > 6.60 |

----------
Tested on: SKBR3 (PI3Kα-Wild Type) cell line
Experiment: HTRF phospho-AKT(S473) cell assay in SKBR3 cells
Assay type: cell-based, human
Settings: Homo sapiens, SK-BR-3; SKBR3 (PI3Kα-Wild Type) cells, HTRF phospho-AKT(S473), 2 hours compound incubation, PDGF-BB stimulated
pIC50: −log10 of the molar value.
Reported values of pIC50 for individual entries

| molecule | target.or.system | pIC50 |
| --- | --- | --- |
| Cc1cc([C@@H](C)Nc2ccc(F)cc2C(=O)NS(C)(=O)=O)c2nc(N3Cc4ccc(F)cc4C3)n(C)c(=O)c2c1 | SKBR3 (PI3Kα-Wild Type) cell line | 5.30 to 6.00 |
| Cc1cc([C@@H](C)Nc2ccc(Cl)nc2C(=O)NS(C)(=O)=O)c2nc(N3Cc4cn(CC(F)F)nc4C3)n(C)c(=O)c2c1 | SKBR3 (PI3Kα-Wild Type) cell line | 5.30 to 6.00 |
| Cc1cc([C@@H](C)Nc2ccc(Cl)nc2C(=O)NS(C)(=O)=O)c2nc(N3[C@@H]4CC[C@H]3C[C@@H](c3cnn(C)c3)C4)n(C)c(=O)c2c1 [Compound 297] | SKBR3 (PI3Kα-Wild Type) cell line | ≤ 5.30 |
| Cc1cc([C@@H](C)Nc2ccc(Cl)nc2C(=O)NS(C)(=O)=O)c2nc(N3CCc4ccccc4[C@H]3C)n(C)c(=O)c2c1 (mixture of isomers) | SKBR3 (PI3Kα-Wild Type) cell line | ≤ 5.30 |
| Cc1cc([C@@H](C)Nc2ccc(Cl)nc2C(=O)NS(C)(=O)=O)c2nc(N3Cc4cn(-c5cccnc5C)nc4C3)n(C)c(=O)c2c1 | SKBR3 (PI3Kα-Wild Type) cell line | 5.30 to 6.00 |
| C[C@@H](Nc1ccc(Cl)[nH]c1=O)c1cc(F)cc2c(=O)n(C)c(N3Cc4ccc(F)cc4C3)nc12 | SKBR3 (PI3Kα-Wild Type) cell line | ≤ 5.30 |
